# ASSAY_DETAILS: Biotin-PGE2 ELISA (PGE2-biotinamide binding to captured IgG)
MEASURED_QUANTITY: EC50 (pM)

| MOLECULE | OBSERVED |
| --- | --- |
| Hu2B5.7: humanized 2B5-8.0; VH SEQ ID NO 72, VL SEQ ID NO 73 (antibody, V domains shown) VH: EVQLVQSGAEVKKPGASVKVSCKASGYTFTKYWLGWVRQAPGQGLEWMGDIYPGYDYTHYNEKFKDRVTLTTDTSTSTAYMELRSLRSDDTAVYYCARSDGSSTYWGQGTLVTVSS VL: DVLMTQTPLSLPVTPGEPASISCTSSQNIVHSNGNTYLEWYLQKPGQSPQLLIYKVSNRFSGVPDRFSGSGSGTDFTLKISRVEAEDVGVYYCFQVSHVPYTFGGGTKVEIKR | 79 |
| Hu2B5.3: humanized 2B5-8.0; VH SEQ ID NO 64, VL SEQ ID NO 65 (antibody, V domains shown) VH: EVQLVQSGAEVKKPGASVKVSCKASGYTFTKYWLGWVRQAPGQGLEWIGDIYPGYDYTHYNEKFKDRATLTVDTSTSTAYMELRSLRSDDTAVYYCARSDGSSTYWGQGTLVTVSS VL: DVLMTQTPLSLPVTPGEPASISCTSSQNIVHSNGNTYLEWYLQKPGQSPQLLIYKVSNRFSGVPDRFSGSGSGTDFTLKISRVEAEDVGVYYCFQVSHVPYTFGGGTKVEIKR | 59 |

FYI, the data here is from patent US8624002B2.
